- Test system: NCI-H322M lung
- assayRemarks: NCI-60 one-dose screen, 48 h (100 = growth as untreated, 0 = no growth, -100 = all killed)
- assaySetup: 10 µM unless noted
About 83,000 compounds went through this panel and 20% of them were active in at least one assay; those are over-represented in the sample as a whole. Calls of active or inactive are those of the source. Rule for the calls: active = growth percent below 10; inactive = the rest.

compound	growth
CCCCCCCCCCCCS(=O)CC(C)O (stereo not given)	119% (inactive)
NCc1cn2cc(Cl)sc2n1	90.3% (inactive)
O=C(CCCN1CCOCC1)Nc1ccc(Cn2nnc3c2C(=O)c2nnn(Cc4ccc(NC(=O)CCCN5CCOCC5)cc4)c2C3=O)cc1	21% (inactive)
COc1ccc(-c2csc(NC(=O)CN3CCN(c4cc5c(cc4F)c(=O)c(C(=O)O)cn5C4CC4)CC3)n2)cc1	17.1% (inactive)
CCOC(=O)c1cnc2ccc(OC)cc2c1Nc1cccc(S(=O)(=O)NC)c1	99.8% (inactive)
O=C1Nc2c(ccc(Cl)c2Cl)/C1=C/c1cc(Br)c(O)c(Br)c1	90.3% (inactive)
COc1cc(-c2c3c(nc4c2c(C)nn4-c2ccccc2)-c2ccccc2C(=O)C3=O)cc(OC)c1OC	104% (inactive)
ClC1=C2NC=NC2n2c(nnc2-c2ccc(Cl)cc2)N1 (stereo not given)	110% (inactive)
Nc1nc(-c2ccc(F)cc2)cc(-c2cnn(-c3ccccc3)n2)n1	93.9% (inactive)
CC[C@H](Nc1ncnc(N)c1C(N)=O)c1nc2cccc(NCc3ccc(C(=O)NO)cc3)c2c(=O)n1-c1ccccc1	86.9% (inactive)

====

- System: MCF7 breast
- assayRemarks: NCI-60 one-dose screen, 48 h (100 = growth as untreated, 0 = no growth, -100 = all killed)
- assaySetup: 10 µM unless noted
The panel holds about 83,000 compounds, 20% with a hit somewhere; the sample as a whole holds those more often.

chemicalString	growth, %
CCCCOc1ccc(NC(=O)n2nc(NC(C)=O)c3cc(NC(C)=O)ccc32)cc1	91.9
c1c2c(cc3c1OCO3)Cc1cc3c(cc1Cc1cc4c(cc1C2)OCO4)OCO3	90.8
C#Cc1nc2ccccc2c(=O)[nH]1	-25
Oc1cccc(Nc2nccc(-c3ccc4ccccc4c3)n2)c1	25.3
CNC(=O)c1cc(Oc2ccc3nc(NC(=O)Nc4ccc(N5CCC(N(C)C)CC5)cc4)sc3c2)ccn1	67.7

====

- Tested on: NCI-H23 lung
- assayRemarks: NCI-60 one-dose screen, 48 h
- assaySetup: 10 µM unless noted
About 83,000 compounds went through this panel and 20% of them were active in at least one assay; those are over-represented in the sample as a whole. Calls of active or inactive are those of the source. Rule for the calls: active = growth percent below 10; inactive = the rest.
Outcomes: active, inactive

chemicalString	labelClass
C#Cc1nc2ccccc2c(=O)[nH]1	inactive
CCCCCCCCOC(=O)CC[C@@H](C)[C@H]1CC[C@H]2[C@@H]3[C@H](OC(=O)CCN)C[C@@H]4C[C@H](OC(=O)CCN)CC[C@]4(C)[C@H]3C[C@H](OC(=O)CCN)[C@]12C	inactive
O=C(Nc1ccc(Nc2cc(Nc3ccccc3)ncn2)cc1)Nc1cc(C(F)(F)F)ccc1F	inactive
CCOC(=O)c1nc(Nc2cc(C)[nH]n2)c2ccccc2n1	inactive
O=C1c2cccnc2C(=O)c2c1c(C(=O)OCCN1CCOCC1)c1ccccn21	active
COc1cc(OC)c(/C=C/C(=O)c2c(OC)cc(OC)cc2OC)c(OC)c1	active
O=C(O)c1ccccc1Nc1cccc(S(F)(F)(F)(F)F)c1	inactive
CCN(CC)CC#CCOC(=O)[C@]1(C)CCC[C@@]2(C)[C@H]1CC(C=O)=C1C=C(C(C)C)CC[C@@H]12	inactive
O=C1C=CC(=O)c2c1nc1n2CCCC1	inactive

====

- Test system: MDA-MB-231 breast
- assayRemarks: NCI-60 one-dose screen, 48 h
- assaySetup: 10 µM unless noted
The panel holds about 83,000 compounds, 20% with a hit somewhere; the sample as a whole holds those more often. Activity calls are given as the source filed them. Rule for the calls: active = growth percent below 10; inactive = the rest.
Outcomes: active, inactive

compound	testTarget	labelClass
Cc1ccn2c(-c3csc(Nc4cccc(O)c4)n3)c(C)nc2c1	MDA-MB-231 breast	active
O=c1c(/C=C/c2ccco2)nnc(SCCN2CCOCC2)n1/N=C/c1ccc([N+](=O)[O-])cc1	MDA-MB-231 breast	inactive
CCN(CC)Cc1cc(Nc2c3ccccc3nc3cc(Cl)ccc23)ccc1O	MDA-MB-231 breast	active
O=C1O[C@H]([C@H](O)CO)C(O)=C1O	MDA-MB-231 breast	inactive
Nc1cc(O)cc2cccnc12	MDA-MB-231 breast	inactive
OC(c1cccc(C(F)(F)F)c1)c1cnccc1NC1CCCCCC1 (stereo unspecified)	MDA-MB-231 breast	inactive

====

- Test system: RPMI-8226 leukemia
- assayRemarks: NCI-60 one-dose screen, 48 h (100 = growth as untreated, 0 = no growth, -100 = all killed)
- assaySetup: 10 µM unless noted
The panel holds about 83,000 compounds, 20% with a hit somewhere; the sample as a whole holds those more often.
Checkbox rule: growth lower than 30% = label 1; growth not lower than 30% = label 0.

molecule	labelClass
O=C(COCc1c(-c2ccccc2)no[n+]1[O-])Nc1ccc(C(=O)/C=C/c2ccc3c(c2)OCO3)cc1	label 0
Cc1nn(-c2nc3ccccc3[nH]2)c2c1C(c1ccc3c(c1)OCO3)CC(=O)N2 (centres undefined)	label 1
CCOC(=O)c1c2c(n3ccc(NC(=O)CCN4CCOCC4)cc13)C(=O)c1ncccc1C2=O	label 0
O=C(O)c1cccnc1Br	label 0
COc1cc(/C=N\NC(=O)CN2CCN(c3cc4c(cc3F)c(=O)c(C(=O)N/N=C/c3ccc(O)c(OC)c3)cn4C3CC3)CC2)ccc1O	label 0
COc1cc(C2C(C(=O)c3cccs3)=C(O)C(=O)N2CCN2CCOCC2)cc(OC)c1OC (centres undefined)	label 0
CN1C2CCC1/C(=C\c1ccc(Cl)cc1)C1=C2[C@@H](c2ccc(Cl)cc2)C(C#N)=C(N)O1 (some centres undefined)	label 0
CSc1[nH]c2ncnc(N)c2c1C#N	label 0
O=C1c2cc3c(cc2-c2c1c1cc(Cl)c(Cl)cc1c(=O)n2C[C@H](O)CO)OCO3	label 1

====

// growth lookup, one value per entry
- Test system: LOX IMVI melanoma
- assayRemarks: NCI-60 one-dose screen, 48 h (100 = growth as untreated, 0 = no growth, -100 = all killed)
- assaySetup: 10 µM unless noted
- Description: Growth inhibition of the LOX IMVI human tumor cell line is measured as a screen for anti-cancer activity. Cells are grown in 96 well plates and exposed to the test compound for 48 hours. Compounds are tested at a single concentration, which is 10^-5 M for most compounds. The reported endpoint is percent growth (GI% or GIPRCNT), where numbers from 0 - 100% represent growth inhibition, and numbers from -100% - 0 represent cell death. For example, a value of 40 represents 60% growth inhibition. […]
The panel holds about 83,000 compounds, 20% with a hit somewhere; the sample as a whole holds those more often.

compound	growth (%)
CCCN(CCC)CN(CCC)CCC	104
CCN(CC)Cc1cc(Nc2c3ccc(Cl)cc3nc3c(C)cccc23)ccc1O	-84.9
Oc1cc(O)c2c(=S)cc(-c3ccc(Cl)cc3)oc2c1	38.6
CC[C@]12C=CCN3CC[C@@]4(c5ccc(OC)cc5N(C)[C@H]4[C@@](O)(C(=O)OC)[C@@H]1OC(=O)CCC(=O)N[C@@H](Cc1c[nH]c4ccccc14)C(=O)OC)[C@@H]32	84.1
COc1ccc(-c2cc(/C=C3\C(=O)Nc4ccc(Cl)cc43)[nH]n2)cc1	35.2
CC#Cc1nc2ccccc2c(=O)[nH]1	-60.1
CCOC(=S)SCc1ccc(Cl)cc1	99.3
O=C1Nc2ccc(Br)cc2C12CC(c1ccccc1)=NN2 (configuration not stated)	51.9
CCOC(=O)c1c2ncccc2n2c(=O)n(-c3ccc(Cl)cc3)nnc12	41.1
CCOC(=O)/C=C/c1ccc(C(=O)OCC)[nH]1	52.7
Cc1cc2cc3cc(C)c(N(C)C)cc3nc2cc1N(C)C	24
CCOC(=O)c1c2c(n3ccc(NC(=O)CCN4CCCCC4)cc13)C(=O)c1ncccc1C2=O	-63.9
O=C1/C(=C/c2ccc(Cl)c(Cl)c2)CN(C(=O)CCN2CCC(=NO)CC2)C/C1=C\c1ccc(Cl)c(Cl)c1	-90.6
COc1c2ccccc2c(OC)c2[nH]c(=O)ccc12	12.1
Cc1csc2ccc(Cl)cc12	103
C=C(CN1CCN(c2cccc(C(F)(F)F)n2)CC1)c1ccc(C(=O)Nc2ccccc2N)cc1	8.1
Cn1cc(-c2ccc(-c3cn(C)c4ncccc34)[nH]2)c2cccnc21	21.8
COc1ccc(CCN2CCCn3c2nc2ccccc2c3=O)cc1	15.1
C=C1C(=O)O[C@H]2[C@H]1CC/C(Cn1cc(Cc3c[nH]c4ccccc34)nn1)=C\CC[C@@]1(C)O[C@@H]21	-76.2
Cc1cc(-c2nc3ccccc3s2)ccc1NC(=O)COc1ccc(Cl)cc1	94.5
CCOC(=O)C(=Cc1ccccc1F)C(=O)OCC	86.4
CCOC(=O)C(Cc1cc(I)c(O)c(I)c1)NC(=O)c1ccccc1 (configuration not stated)	103
